System: U251 CNS
Assay procedure: NCI-60 one-dose screen, 48 h (100 = growth as untreated, 0 = no growth, -100 = all killed)
Condition description: 10 µM unless noted
Description: Growth inhibition of the U251 human tumor cell line is measured as a screen for anti-cancer activity. Cells are grown in 96 well plates and exposed to the test compound for 48 hours. Compounds are tested at a single concentration, which is 10^-5 M for most compounds. The reported endpoint is percent growth (GI% or GIPRCNT), where numbers from 0 - 100% represent growth inhibition, and numbers from -100% - 0 represent cell death. For example, a value of 40 represents 60% growth inhibition. […]
This is part of a sample that, as a whole, favours compounds with a hit. Of some 83,000 tested, about 20% had one in any assay.
Please map values of growth to classes as shown: low interval = under 60%, middle interval = from 60% up to 90%, high interval = 90% and over

Q: # bin label for CCCS(=O)(=O)c1nc(NC2CC2)cc(-c2ccc3c(ccn3C3CC(C)(C)NC(C)(C)C3)c2)n1
Ans: low interval

Q: Into which category would you place COc1cccc(C2CC(=O)Nc3c2c(C)nn3-c2nc3ccccc3[nH]2)c1OC (centres undefined) ?
Ans: middle interval

Q: Bin? O=C(NCCc1c[nH]c2ccccc12)C1Cc2ccccc2CN1C(=O)c1ccco1 (centres undefined)
Ans: high interval

Q: Into which category would you place N=C(N)c1ccc(-c2ccc(-c3ccc(Cl)cc3)o2)nc1 ?
Ans: low interval

Q: Category of CNC(C)=O , please.
Ans: high interval

Q: Into which bin does this compound go? COc1cc(C2C=C(C)N=C3SC=CN32)cc(OC)c1OC (centres undefined)
Ans: high interval

Q: Place this compound in its band: O=C(CNC1CCCCC1)Nc1ccc(-c2nc3ccccc3s2)cc1
Ans: middle interval

Q: Band for Cc1ccccc1C(=O)c1ccccc1C(=O)O ?
Ans: high interval

Q: Determine which band this compound sits in: COc1ccc(C2CC(=O)Nc3c2c(C)nn3-c2nc3ccccc3[nH]2)cc1OC (centres undefined)
Ans: middle interval

Q: Band for CCCCCCCCCCn1cc[n+](C)c1 ?
Ans: low interval

----------
System: IGROV1 ovarian
Assay procedure: NCI-60 one-dose screen, 48 h
Condition description: 10 µM unless noted
About 83,000 compounds went through this panel and 20% of them were active in at least one assay; those are over-represented in the sample as a whole. Active and inactive are the calls of the source. How the source made its calls: active means growth percent below 10; inactive means the rest.
Outcome (select one): YES for active, NO for inactive

Q: GET /call?item= CCC1CCc2nc3sc(C(=O)Nc4ccccc4F)c(N)c3cc2C1 (centres undefined) returns the recorded outcome of this test.
Ans: NO

Q: GET /call?item= COc1cccc(-n2cc(-c3nc(Cl)c4ccccc4n3)nn2)c1 returns the recorded outcome of this test.
Ans: NO

Q: # lookup: test call for COc1ccc(-c2nc3sccn3c2-c2ccnc(NCCCNS(=O)(=O)c3ccc4ccccc4c3)n2)cc1
Ans: NO

Q: Please let me know the test result on file for COc1cc(NCCN=C(N)NC(N)=NC(C)C)c2ncccc2c1 .
Ans: YES

Q: // outcome(item) with item = CCN(CC)CCC(=O)c1cccc2ccccc12
Ans: NO

Q: Short answer needed: outcome of this test for CCC1CCc2nc3sc(C(=O)Nc4cccc(C)c4)c(N)c3cc2C1 (centres undefined) ?
Ans: NO

Q: What did the test return for COc1cc(NC(=O)CSc2nc3ccc(C)cc3c(=O)n2-c2ccccc2)cc(OC)c1OC ?
Ans: NO

Q: // param item: CCCCCCCN(CCCCCCC)C(=N)c1ccc(OC)c2ccccc12 ; yields the recorded call
Ans: YES

Q: Would you mind telling me which call this test gave COc1cc2nc(Cl)nc(NCCO)c2cc1OC ?
Ans: NO

Q: What was the test verdict on CC[C@H](C)[C@H]1NC(=O)[C@@H](N[C@](C)(O)[C@@H](N)CC(C)C)[C@@H](C)OC(=O)[C@H](Cc2ccc(OC)cc2)N(C)C(=O)[C@@H]2CCCN2C(=O)[C@H](CC(C)C)NC(=O)[C@@H](C)C(=O)[C@H](C(C)C)OC(=O)C[C@@H]1O ?
Ans: YES

Q: Which result was noted for this compound in the test: COc1cc(C2C=C(C)N=C3SC(C)=NN32)cc(OC)c1OC (centres undefined)
Ans: NO

Q: Each compound tested received a call. Report the one for CC(=O)Nc1ccc(S(=O)(=O)NC(CCC(=O)Nc2ccc(Cl)cc2)C(=O)O)cc1 (centres undefined) .
Ans: NO

Q: Which outcome was entered for the compound COC(=O)[C@H]1[C@H](OC)[C@@H](OC(=O)/C=C/c2ccncc2)CC2CN3CCc4c([nH]c5cc(OC)ccc45)[C@@H]3C[C@@H]21 (some centres undefined) in this test?
Ans: NO

Q: Look up the recorded call for COc1cc(C(=O)CCCl)ccc1O in this test.
Ans: NO

Q: What classification did CCCCCCC[C@@H](O)CC(=O)N[C@H](CCCCN)C(=O)N[C@H](Cc1c[nH]c2ccccc12)C(=O)NC(CCCCN)C(=O)N[C@H](CC(C)C)C(=O)N[C@H](Cc1ccccc1)C(=O)N[C@H](CCCCN)C(=O)N[C@H](CCCCN)C(=O)N[C@H](CC(C)C)C(=O)N1CCCC1C(=O)N[C@H](CCCCN)C(=O)N[C@H](Cc1ccccc1)C(=O)N[C@H](CC(C)C)C(=O)N[C@H](Cc1c[nH]cn1)C(=O)N[C@H](CC(C)C)C(=O)N[C@H](C)C(=O)N[C@H](CCCCN)C(=O)N[C@H](CCCCN)C(=O)N[C@H](Cc1ccccc1)C(=O)O (some centres undefined) end up with in this test?
Ans: YES

Q: Could you kindly confirm the outcome this assay logged for CC1(C)OC2COC3(C(=O)O)OC(C)(C)OC3C2O1 (centres undefined) ?
Ans: NO

Q: Which outcome was assigned to O=S(=O)(NCCCNc1nccc(-c2c(-c3ccc(F)c(O)c3)nc3sccn23)n1)c1ccc(Cl)cc1 in this test?
Ans: NO

Q: What outcome does the record of this test show for O=C(Nc1ccc(OCc2nnc(-c3ccc(Cl)cc3)o2)c(F)c1)Nc1ccc(Cl)c(Cl)c1 ?
Ans: NO

Q: What was the test verdict on COc1cc(/C=C2\C=C(c3ccc(F)cc3)N(Cc3ccccc3)C2=O)cc(OC)c1OC ?
Ans: NO

Q: # outcome recorded in this test, key = CN(C)c1ccc(C2CC(c3ccccc3)=NN2/C=C2\SC(=O)NC2=O)cc1 (centres undefined)
Ans: NO

Q: Outcome logged for COc1ccc(C(=O)c2cc(OC)c(OC)c(OC)c2)cc1/C=C/C(=O)c1ccc2c(c1)OCO2 in this assay:
Ans: NO

Q: Query: recorded result category for Nc1c(C(=O)Nc2cccc([N+](=O)[O-])c2)sc2nc3c(cc12)C(O)CCC3 (centres undefined) in this test
Ans: NO

Q: Per the records of this test, what outcome belongs to COc1ccc(NC(=O)c2cc3ccccc3nc2Nc2cc(OC)c(OC)c(OC)c2)cc1 ?
Ans: NO

Q: Query: recorded result category for CC(Br)C(OC(=O)c1ccccc1Cl)c1cc2c(cc1Br)OCO2 (centres undefined) in this test
Ans: NO

Q: Recorded test outcome, item O=C1OC(c2ccccc2)=N/C1=C\c1ccc([N+](=O)[O-])cc1
Ans: NO

Q: Recorded test call requested for N#CC1=C(N)n2nc(-c3ccncc3)nc2NC1c1cccc2ccccc12 (centres undefined)
Ans: NO

Q: For COc1cccc(NC(=O)c2sc3nc4c(cc3c2N)CCCC4)c1 , which call appears in the assay record?
Ans: NO

Q: Please let me know the test result on file for CC(=O)Oc1cccc(OC(C)=O)c1OC(C)=O .
Ans: NO

Q: Could you check what this test reported for O=C(CSc1nc(-c2ccc(Cl)cc2)cn1-c1ccc(Cl)cc1)c1ccc(Br)cc1 ?
Ans: NO

----------
System: A498 renal
Assay procedure: NCI-60 one-dose screen, 48 h
Condition description: 10 µM unless noted
Experimental: Growth inhibition of the A498 human tumor cell line is measured as a screen for anti-cancer activity. Cells are grown in 96 well plates and exposed to the test compound for 48 hours. Compounds are tested at a single concentration, which is 10^-5 M for most compounds. The reported endpoint is percent growth (GI% or GIPRCNT), where numbers from 0 - 100% represent growth inhibition, and numbers from -100% - 0 represent cell death. For example, a value of 40 represents 60% growth inhibition. […]
This is part of a sample that, as a whole, favours compounds with a hit. Of some 83,000 tested, about 20% had one in any assay. Calls of active or inactive are those of the source. Rule for the calls: active = growth percent below 10; inactive = the rest.
Write down one outcome, taken from label 1 = active, label 0 = inactive

Q: What is the recorded call for this molecule in the test? Cc1c(C(=O)NCc2ccccc2)[n+](=O)c2cc(F)ccc2n1[O-]
Ans: label 0

Q: # outcome recorded in this test, key = CC(C)(C)c1ccc(S(=O)(=O)Oc2ccc3c4c(c(=O)oc3c2)CCCCC4)cc1
Ans: label 1

Q: Each molecule tested received a call. Report the one for CCC1CCc2nc3sc(C(=O)Nc4ccccc4C)c(N)c3cc2C1 (stereo not drawn) .
Ans: label 0

Q: Assay result, entry O=c1c2cccc3c(Nc4ccc(F)cc4)ccc(c32)c2nc3ccccc3n12 — outcome?
Ans: label 0

Q: Give the logged outcome of this assay for the following molecule: Clc1nc(-c2cccnc2)nc2sc3c(c12)CCCCCC3
Ans: label 0

Q: Lab log entry: O=C(CNC(=O)c1cccc2ccccc12)Nc1ccccc1Oc1ccccc1 — outcome as called in the assay?
Ans: label 1

Q: State the result this test recorded for CCCC(C(=O)OCC)C(C)OC(=O)OCC (stereo not drawn) .
Ans: label 0

Q: What was the test verdict on Cc1c(C2=NNC(c3ccc4c(c3)OCO4)C2)[n+]([O-])c2ccccc2[n+]1[O-] (stereo not drawn) ?
Ans: label 0

Data origin: PubChem BioAssay (NCI)
